target: 5-HT2B receptor (Homo sapiens, UniProt P41595); construct: host or cells: CHO-K1; experiment: 5-HT2B receptor binding, 3H-LSD ligand displacement assay; details: 0.01 uM compound
Sequence (P41595 whole entry): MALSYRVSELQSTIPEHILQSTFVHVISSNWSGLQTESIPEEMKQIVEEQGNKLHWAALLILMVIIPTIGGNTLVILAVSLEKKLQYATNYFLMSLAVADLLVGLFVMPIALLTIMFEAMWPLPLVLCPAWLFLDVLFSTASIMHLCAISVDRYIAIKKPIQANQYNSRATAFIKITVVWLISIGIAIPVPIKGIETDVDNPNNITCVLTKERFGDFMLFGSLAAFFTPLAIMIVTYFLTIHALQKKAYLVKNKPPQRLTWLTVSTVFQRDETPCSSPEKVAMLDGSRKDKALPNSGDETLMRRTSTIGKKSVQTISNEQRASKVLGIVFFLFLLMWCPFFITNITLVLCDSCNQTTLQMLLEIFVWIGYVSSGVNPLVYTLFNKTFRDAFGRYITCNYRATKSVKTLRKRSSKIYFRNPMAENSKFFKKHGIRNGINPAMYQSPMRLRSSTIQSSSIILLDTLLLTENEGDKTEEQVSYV
Quick rule: inhibition at 0.01 µM of at least 50% means Condition met, below that means Condition not met.

Previously resolved entries follow.
COc1ccccc1C1=NN(C(=N)NCC(F)(F)C(F)(F)C(F)(F)F)CC1C (centres unmarked) [Example 92] ... Condition not met
CC1CN(C(=N)NCC(F)(F)F)N=C1c1ccccc1O (centres unmarked) [Example 95] ... Condition met
COc1c(Cl)cccc1C1=NN(C(=N)Nc2ccc(C(F)(F)F)cc2)CC1C (centres unmarked) [Example 112] ... Condition met
CC1CN(C(=N)N)N=C1c1ccc(F)cc1O (centres unmarked) [Example 50] ... Condition not met
COc1c(Cl)cccc1C1=NN(C(=N)NCC(F)(F)C(F)(F)C(F)(F)F)CC1C (centres unmarked) [Example 106] ... Condition met

// query Hello, I need to know if CC1CN(C(=N)Nc2ccc(Cl)cc2)N=C1c1cccc(Cl)c1O (centres unmarked) [Example 111] has measured inhibition at 0.01 µM not below 50%. Thanks!
// result Condition met

// query Hello, I need to know if CC1CN(C(=N)NCC(F)(F)C(F)(F)C(F)(F)F)N=C1c1ccccc1O (centres unmarked) [Example 93] has measured inhibition at 0.01 µM not below 50%. Thanks!
// result Condition met

// query Hello, I need to know if C[C@H]1CN(C(=N)NCc2ccccc2)N=C1c1cccc(Cl)c1O (single isomer, unassigned) [Example 77] has measured inhibition at 0.01 µM not below 50%. Thanks!
// result Condition not met

// query Hello, I need to know if CC1CN(C(=N)N)N=C1c1cc(Cl)ccc1O (centres unmarked) [Example 52] has measured inhibition at 0.01 µM not below 50%. Thanks!
// result Condition not met

// query Hello, I need to know if CC1CN(C(=N)Nc2ccc(C(F)(F)F)cc2)N=C1c1cccc(Cl)c1O (centres unmarked) [Example 113] has measured inhibition at 0.01 µM not below 50%. Thanks!
// result Condition met

// query Hello, I need to know if CCCCNC(=N)N1CC(C)C(c2cccc(Cl)c2OC)=N1 (centres unmarked) [Example 78] has measured inhibition at 0.01 µM not below 50%. Thanks!
// result Condition met

// query Hello, I need to know if CC1CN(C(=N)N)N=C1c1cc(F)ccc1O (centres unmarked) [Example 46] has measured inhibition at 0.01 µM not below 50%. Thanks!
// result Condition not met

// query Hello, I need to know if CC1CN(C(=N)NO)N=C1c1ccccc1O (centres unmarked) [Example 44] has measured inhibition at 0.01 µM not below 50%. Thanks!
// result Condition not met

// query Hello, I need to know if COc1ccc(NC(=N)N2CC(C)C(c3ccccc3O)=N2)cc1 (centres unmarked) [Example 105] has measured inhibition at 0.01 µM not below 50%. Thanks!
// result Condition met

src = patent US10544103B2
